Listed below: EC50 values for each entry.
- SUBJECT OF TEST: hTAAR1 (Homo sapiens (Human), UniProt Q96RJ0)
- Sequence (Q96RJ0 whole entry): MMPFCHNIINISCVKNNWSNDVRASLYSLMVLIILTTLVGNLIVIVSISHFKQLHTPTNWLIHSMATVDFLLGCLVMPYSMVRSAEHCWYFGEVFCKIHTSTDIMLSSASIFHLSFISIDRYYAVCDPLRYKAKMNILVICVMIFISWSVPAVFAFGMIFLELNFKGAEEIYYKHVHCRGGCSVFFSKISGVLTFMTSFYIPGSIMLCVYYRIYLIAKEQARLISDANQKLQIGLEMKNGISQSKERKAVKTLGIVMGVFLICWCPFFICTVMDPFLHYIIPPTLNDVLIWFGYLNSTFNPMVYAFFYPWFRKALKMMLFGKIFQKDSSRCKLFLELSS
- ASSAY TEXT: in vitro cAMP assay (agonist activity assay), HitHunter cAMP XS+, cAMP Hunter cell lines
- CONDITION DESCRIPTION: cAMP Hunter cells, 30 min at 37° C., n in brackets; read-out: hTAAR1 EC50 (mean ± SEM(n))
- Protocol: EC50 (the effective concentration of an agonist that produces half of the maximal effect) and Emax (the maximal cAMP level generated by the biding of a ligand) can be used as a measure of potency. […] An in vitro cAMP assay (agonist activity assay) is described below. […] Microplates were read following signal generation with a PerkinElmer Envision™ instrument (Waltham, Mass.) for chemiluminescent signal detection. Compound activity was analyzed using CBIS Data Analysis Suite (ChemInnovation, CA).
EXPERIMENTAL ENDPOINT: EC50

{"CHEMICAL STRUCTURE": "CCN(C[C@H]1COC(NC2=N[C@@H](c3ccc(Cl)c(Cl)c3)CO2)=N1)c1ccccc1", "MEASURED": "> 10 µM"}
{"CHEMICAL STRUCTURE": "c1ccc([C@H]2COC(NC3=N[C@@H](c4ccccc4)CO3)=N2)cc1", "MEASURED": "> 10 µM"}
{"CHEMICAL STRUCTURE": "CCN(C[C@H]1COC(NC2=N[C@@H](CN(CC)c3ccccc3)CO2)=N1)c1ccccc1", "MEASURED": "4.07 µM"}
{"CHEMICAL STRUCTURE": "Cc1c(F)cccc1[C@H]1COC(NC2=N[C@@H](c3cccc(F)c3C)CO2)=N1", "MEASURED": "0.398 µM"}
{"CHEMICAL STRUCTURE": "Clc1ccc([C@H]2COC(NC3=N[C@@H](c4ccc(Cl)c(Cl)c4)CO3)=N2)cc1Cl", "MEASURED": "> 10 µM"}
